# assayTarget: His-JNK1 (ref 14-327, Upstate) (UniProt P45983 1-384)
# Sequence (P45983 other isoform, or with tags, fused parts or gaps): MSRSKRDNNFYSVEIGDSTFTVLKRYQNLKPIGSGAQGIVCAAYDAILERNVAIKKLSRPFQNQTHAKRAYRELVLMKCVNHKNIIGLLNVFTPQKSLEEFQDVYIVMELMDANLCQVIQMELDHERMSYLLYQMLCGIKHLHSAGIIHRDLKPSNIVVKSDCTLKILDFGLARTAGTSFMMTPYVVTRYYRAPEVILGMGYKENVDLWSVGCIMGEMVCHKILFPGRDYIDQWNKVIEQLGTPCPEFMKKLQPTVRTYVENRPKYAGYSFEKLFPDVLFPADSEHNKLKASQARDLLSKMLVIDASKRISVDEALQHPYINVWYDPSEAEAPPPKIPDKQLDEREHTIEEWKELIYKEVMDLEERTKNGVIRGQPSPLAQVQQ
# assayRemarks: kinase inhibition
Square brackets hold non-standard residues; d marks the D form. Ends that are not written are not given here.
measureName: log10 IC50 (log10 of the value in nM)
Form field - Quantity: IC50; Unit: nM; Scale: log10

Solved entries:
binder="[dR]KKR[dR]QRR[dR]GKRKALKL[dF] [SEQ ID NO: 188]" testresult=3.15
binder="[dR]KKR[dR]QRR[dR]RP[dK]RPTDLNL[dF] [SEQ ID NO: 177]" testresult=2.55
binder="[dR]KKR[dR]QRR[dR]RKAL[dR]L[dF] [SEQ ID NO: 190]" testresult=3.95

Input line: Could you tell me which log10 IC50 is on file for [dR]KKR[dR]QRR[dR]RP[dK]RP[dS]TLNL[dF] [SEQ ID NO: 185] ?
Output line: 2.88

Input line: And for [dR]KKR[dR]QRR[dR]RPTTLNL[dF] [SEQ ID NO: 174] ?
Output line: 2.52

Input line: Another: [dR]KKR[dR]QR[dR]RPTDL[dR]L[dW] [SEQ ID NO: 181]
Output line: 2.47
